Quick list: kinase still bound, per cent of control per entry.
- STUDY_SYSTEM: BMPR1B (human)
- PROTOCOL_SUMMARY: KINOMEscan competition binding
- PROTOCOL_CONDITIONS: compound 10.0 µM
Kindly answer with a numeric value in %, unit omitted.

Here are 5 molecules together with their reported answers.
MOLECULE	VALUE_UNIT	kinase still bound, per cent of control
COc1cc2ncnc(Nc3cccc(Cl)c3)c2cc1OC	%	62
Cc1cn(-c2cc(C(=O)Nc3ccc(C)c(NC(=O)c4ccno4)c3)cc(C(F)(F)F)c2)cn1	%	100
COc1ccc(N(C(=O)Oc2cc(C(=O)Nc3cccc(C(F)(F)F)c3)ccc2C)c2ccnc(Nc3ccc(N4CCN(C)CC4)cc3)n2)c(OC)c1	%	100
CC(=O)c1c(C)c2cnc(Nc3ccc(N4CCNCC4)cn3)nc2n(C2CCCC2)c1=O	%	50
COc1cc2c(Nc3ccc(NC(=O)c4ccccc4)cc3)ncnc2cc1OCCCN1CCOCC1	%	26

Input: Using the record for O=c1[nH]c2ccccc2n1C1CCN(Cc2ccc(-c3nc4cc5[nH]cnc5cc4nc3-c3ccccc3)cc2)CC1 , report its kinase still bound, per cent of control.
Output: 88

Input: Which kinase still bound, per cent of control value is on record for COc1cc(C)c(Sc2cnc(NC(=O)c3ccc(CNC(C)C(C)C)cc3)s2)cc1C(=O)N1CCN(C(C)=O)CC1 (centres undefined) ?
Output: 100

Input: Item under review: CCN(CCO)CCCOc1ccc2c(Nc3cc(CC(=O)Nc4cccc(F)c4)[nH]n3)ncnc2c1 . Reported kinase still bound, per cent of control?
Output: 77

Input: Item CCCS(=O)(=O)Nc1ccc(F)c(C(=O)c2c[nH]c3ncc(Cl)cc23)c1F has what recorded kinase still bound, per cent of control?
Output: 74

The reported measurements were obtained from the kinase profiling compilation of Christmann-Franck et al. (2016).
